experimental_system: T1, mouse serum albumin (mouse, UniProt P07724 25-608)
T1 construct: also called MSA
T1 sequence (P07724 25-608 limits assumed): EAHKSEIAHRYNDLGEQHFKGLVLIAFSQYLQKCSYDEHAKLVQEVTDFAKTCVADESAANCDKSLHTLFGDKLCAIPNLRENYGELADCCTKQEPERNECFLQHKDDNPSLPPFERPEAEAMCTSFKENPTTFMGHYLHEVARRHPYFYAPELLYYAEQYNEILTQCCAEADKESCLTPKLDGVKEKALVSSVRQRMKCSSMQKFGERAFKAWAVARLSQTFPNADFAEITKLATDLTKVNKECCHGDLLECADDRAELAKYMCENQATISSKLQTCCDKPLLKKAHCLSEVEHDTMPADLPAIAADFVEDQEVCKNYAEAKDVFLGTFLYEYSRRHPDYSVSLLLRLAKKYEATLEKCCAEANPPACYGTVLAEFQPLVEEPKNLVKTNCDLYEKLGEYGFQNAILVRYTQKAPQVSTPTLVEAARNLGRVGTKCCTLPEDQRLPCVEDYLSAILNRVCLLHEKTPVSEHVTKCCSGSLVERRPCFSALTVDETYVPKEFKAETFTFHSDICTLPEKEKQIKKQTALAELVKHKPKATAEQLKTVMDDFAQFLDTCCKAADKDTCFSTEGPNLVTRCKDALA
measurement_protocol: Octet biolayer interferometry, biotinylated albumin on SA sensors, pH 7.4
metric_name: kon (M⁻¹ s⁻¹)

binder	kon, M⁻¹ s⁻¹
HSA-41 (designed binder, also called HSA-41 parent; HSA-41 AH parent) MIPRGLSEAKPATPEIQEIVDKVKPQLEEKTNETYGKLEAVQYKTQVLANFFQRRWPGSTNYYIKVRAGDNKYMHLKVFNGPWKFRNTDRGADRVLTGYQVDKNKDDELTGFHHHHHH	663000
HSA-31 (designed binder) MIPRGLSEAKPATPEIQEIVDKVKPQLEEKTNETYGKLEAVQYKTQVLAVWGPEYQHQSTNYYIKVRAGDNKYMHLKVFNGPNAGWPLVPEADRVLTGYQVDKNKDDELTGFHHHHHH	176000

1: HSA-36 (designed binder) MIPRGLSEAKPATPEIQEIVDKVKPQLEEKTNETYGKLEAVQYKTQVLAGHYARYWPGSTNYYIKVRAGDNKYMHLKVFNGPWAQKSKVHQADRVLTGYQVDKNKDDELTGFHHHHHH
2: HSA-20 (designed binder) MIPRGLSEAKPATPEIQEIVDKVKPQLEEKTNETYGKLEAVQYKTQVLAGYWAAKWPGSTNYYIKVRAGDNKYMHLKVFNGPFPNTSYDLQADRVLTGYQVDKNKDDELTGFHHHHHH
Between 1 and 2 , whose recorded kon is greater? // caller expects the label of the chosen entry
1
